B1: ZNF649 (parent)
chain: YQAGKPDALTKLEQGEPLWTLEDE

- Variants of: B1
- test_description: protein stability index of a GFP-peptide fusion (GPS, HEK-293T) (PSI 1-6); higher = more stable;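 further: lentivirally expressed fusions sorted by FACS into six bins by GFP to DsRed ratio, PSI derived from sequencing read proportions per bin multiplied by bin number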
- experimental_setup: c terminus: a fixed tail appended
measurement_kind: protein stability index
Could you keep your reply to the number by itself?

Guide cases for protein stability index, answers given:
P17M 4.1
K5L 4.05
P6H 3.93
D23W 2.13

// sample L18A , its protein stability index was 4.5

// sample A8T , its protein stability index was 3.95

// sample E13N , its protein stability index was 4.16

// sample T20F , its protein stability index was 4.22

// sample E22D , its protein stability index was 4.6

// sample W19V , its protein stability index was 5.72

// sample P6W , its protein stability index was 2.99
